B1: NELF-E aptamer (parent)
chain: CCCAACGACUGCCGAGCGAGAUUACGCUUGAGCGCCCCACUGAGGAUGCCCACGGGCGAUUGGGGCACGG

# Variants of: B1
# assay-method-text: HiTS-RAP
# conditions-used: with NELF-E (Drosophila)
# Kd per record follows
assay-readout: Kd (nM)

> print(dat)
      changes  assay.readout  result
 1   A4U G55A             Kd    8.55
 2  U10G U23C             Kd    4.23
 3  G64A A67U             Kd    35.5
 4  G16U C17U             Kd    6.11
 5  A19G C35U             Kd    7.42
 6  U23A A24G             Kd    6.07
 7   G7U G14U             Kd    6.73
 8    A5G A8G             Kd    6.06
 9    G7U A8U             Kd    6.38
10   A8U C35U             Kd    12.5
11   A5U C66U             Kd    4.52
